# Test system: Rattus norvegicus
# assay_protocol: Antiinflammatory activity in Wistar rat assessed as inhibition of carrageenan-induced hind paw edema volume at 100 mg/kg, po administered 60 mins before carrageenan challenge after 24 hrs relative to control
# Type: functional
readout_name: inhibition in vivo at 100 mg/kg
Don't forget the unit after the number, please.

These solved cases illustrate the format of a correct answer.
{"columns": ["molecule", "target", "inhibition in vivo at 100 mg/kg"],
 "data": [
  ["COc1cc2c(cc1OC)C(CC(=O)NC(C)(C)C)CC2 (stereo unspecified)", "Rattus norvegicus", "40%"],
  ["COc1cc2c(cc1OC)C(CC(=O)NC1CCCC1)CC2 (stereo unspecified)", "Rattus norvegicus", "46.7%"]
]}

Please give inhibition in vivo at 100 mg/kg for each item listed below.
1. CCN(CC)C(=O)CC1CCc2cc(OC)c(OC)cc21 (stereo unspecified)
2. COc1cc2c(cc1OC)C(CC(=O)N1CCOCC1)CC2 (stereo unspecified)
3. COc1cc2c(cc1OC)C(CC(=O)NC1CC1)CC2 (stereo unspecified)
4. CCCCCCNC(=O)CC1CCc2cc(OC)c(OC)cc21 (stereo unspecified)

OUTPUT:
1: 16.7%; 2: 23.3%; 3: 0%; 4: 43.3%

###

# Tested on: Rattus norvegicus
# assay_protocol: Antipyretic activity in Wistar rat assessed as change in LPS-induced rectal temperature at 100 mg/kg, po administered 30 mins before LPS challenge after 5 hrs
# Assay type: functional
I'd appreciate it if you could supply Activity values for the items below.
Give bare numbers, in °C.

These solved cases illustrate the format of a correct answer.
{"columns": ["compound", "Activity (°C)"],
 "data": [
  ["COc1cc2c(cc1OC)C(CC(=O)NC1CCCCC1)CC2 (stereo unspecified)", 0.51],
  ["CCCCCCNC(=O)CC1CCc2cc(OC)c(OC)cc21 (stereo unspecified)", 0.38],
  ["COc1cc2c(cc1OC)C(CC(=O)NC(C)C)CC2 (stereo unspecified)", 0.43],
  ["COc1cc2c(cc1OC)C(CC(=O)NCCO)CC2 (stereo unspecified)", 0.57],
  ["CC(=O)Oc1ccccc1C(=O)O [ASPIRIN]", 0.11]
]}

INPUT: Please indicate Activity recorded for COc1cc2c(cc1OC)C(CC(=O)N1CCNCC1)CC2 (stereo unspecified)
OUTPUT: 0.11

###

I'd appreciate it if you could supply inhibition in vivo at 100 mg/kg values for the items below.
# Test system: Mus musculus
# assay_protocol: Analgesic activity in Swiss albino mouse assessed as inhibition of acetic acid-induced writhing at 100 mg/kg, po administered 60 mins before acetic acid challenge after 5 to 15 mins relative to control
# Type: functional
One number for each entry, in %.

These solved cases illustrate the format of a correct answer.
{"columns": ["molecule", "inhibition in vivo at 100 mg/kg (%)"],
 "data": [
  ["CCCCCCNC(=O)CC1CCc2cc(OC)c(OC)cc21 (configuration not stated)", 82.2],
  ["COc1cc2c(cc1OC)C(CC(=O)NC(C)C)CC2 (configuration not stated)", 29.3],
  ["COc1cc2c(cc1OC)C(CC(=O)N1CCCC1)CC2 (configuration not stated)", 19.2],
  ["CCN(CC)C(=O)CC1CCc2cc(OC)c(OC)cc21 (configuration not stated)", 27.4],
  ["COc1cc2c(cc1OC)C(CC(=O)NCCO)CC2 (configuration not stated)", 29.8],
  ["CCCCCNC(=O)CC1CCc2cc(OC)c(OC)cc21 (configuration not stated)", 71.7],
  ["COc1cc2c(cc1OC)C(CC(=O)NC1CC1)CC2 (configuration not stated)", 32.7],
  ["COc1cc2c(cc1OC)C(CC(=O)N1CCCCC1)CC2 (configuration not stated)", 44.7],
  ["COc1cc2c(cc1OC)C(CC(=O)O)CC2 (configuration not stated)", 44],
  ["CC(=O)Oc1ccccc1C(=O)O", 61.5]
]}

Please give inhibition in vivo at 100 mg/kg for each item listed below.
1. COc1cc2c(cc1OC)C(CC(=O)N(C)C)CC2 (configuration not stated)
2. COc1cc2c(cc1OC)C(CC(=O)NCc1ccccc1)CC2 (configuration not stated)
3. CNC(=O)CC1CCc2cc(OC)c(OC)cc21 (configuration not stated)
4. COc1cc2c(cc1OC)C(CC(=O)NC1CCCC1)CC2 (configuration not stated)
5. COc1cc2c(cc1OC)C(CC(N)=O)CC2 (configuration not stated)
6. COc1cc2c(cc1OC)C(CC(=O)N1CCOCC1)CC2 (configuration not stated)
7. CCCCNC(=O)CC1CCc2cc(OC)c(OC)cc21 (configuration not stated)
8. COc1cc2c(cc1OC)C(CC(=O)NC1CCCCC1)CC2 (configuration not stated)

OUTPUT:
22.6
48
21.2
37
24.6
23.6
39.4
44.7

Please give inhibition in vivo at 100 mg/kg for each item listed below.
1. COc1cc2c(cc1OC)C(CC(=O)N1CCNCC1)CC2 (configuration not stated)
2. CCNC(=O)CC1CCc2cc(OC)c(OC)cc21 (configuration not stated)
3. COc1cc2c(cc1OC)C(CC(=O)NC(C)(C)C)CC2 (configuration not stated)
4. CCCNC(=O)CC1CCc2cc(OC)c(OC)cc21 (configuration not stated)

OUTPUT:
68.8
23.6
41.8
26.9

Reference source: ChEMBL document CHEMBL1151773
